target: Human immunodeficiency virus type 1 protease (Human immunodeficiency virus 1, UniProt Q72874)
parameter: IC50 (nM)
Express the result in nM but write the number alone.

QUERY: Form field: reported IC50 of CC(C)(C)NC(=O)[C@@H]1C[C@@H]2CCCC[C@@H]2CN1C[C@@H](O)[C@H](Cc1ccccc1)NC(=O)O[C@@H]1CO[C@@H]2OCC[C@@H]21
RESULT: 6.4

FYI, the data here is from ChEMBL document CHEMBL1127743.
